- Read-out: CYP3A5 (gene 1577)
- experiment: LTEA_HepaRG_CYP3A5: Life Technologies and Expression Analysis (LTEA) Assay for CYP3A5 using HepaRG (AID 2283493)
- test.parameters: mRNA level, 48 h; actives raise or lower the signal
Active and inactive are the calls of the source. The calls were made as follows: active = hit-call score of the fitted dose curve at least 0.9, where 1 is the maximum; inactive = score below 0.9.
Please answer using one outcome listed in active, inactive

Please review the entries below; each comes with its answer.
So what was the verdict on O=[N+]([O-])/N=C1\NCCN1Cc1ccc(Cl)nc1 in this test?
inactive

So what was the verdict on COP(=S)(OC)Oc1ccc([N+](=O)[O-])cc1 in this test?
inactive

So what was the verdict on N#CN in this test?
inactive

So what was the verdict on O=S(=O)(O)C(F)(F)C(F)(F)C(F)(F)C(F)(F)C(F)(F)C(F)(F)C(F)(F)C(F)(F)F in this test?
inactive

So what was the verdict on CC1(c2ccc(Oc3ccccc3)cc2)OC(=O)N(Nc2ccccc2)C1=O (stereo not drawn) in this test?
active

Kindly consider the entry below.
So what was the verdict on COP(=O)(OC)OC=C(Cl)Cl in this test?
inactive

---

- experiment: ATG_PXRE_CIS: Attagene CIS-FACTORIAL HepG2 Assay for human Pregnane X Receptor Element (PXRE) (AID 2282957)
- test.parameters: HepG2 Attagene CIS-FACTORIAL PXRE reporter, mRNA; actives raise or lower the signal
Activity calls are given as the source filed them. The calls were made as follows: active = hit-call score of the fitted dose curve at least 0.9, where 1 is the maximum; inactive = score below 0.9.
measured.quantity: AC50

Given CCc1ccc(C(=O)NN(C(=O)c2cc(C)cc(C)c2)C(C)(C)C)cc1 , state its recorded AC50.
1.28 µM (active)

Given N#Cc1c(Cl)c(Cl)c(Cl)c(C#N)c1Cl , state its recorded AC50.
0.121 µM (active)

Given O=[N+]([O-])/N=C1\NCCN1Cc1ccc(Cl)nc1 , state its recorded AC50.
30.6 µM (active)

Given CNC(=O)/C=C(\C)OP(=O)(OC)OC , state its recorded AC50.
inactive

Given CC[C@H](C)[C@H]1O[C@]2(C=C[C@@H]1C)C[C@@H]1C[C@@H](C/C=C(\C)[C@@H](O[C@H]3C[C@H](OC)[C@@H](O[C@H]4C[C@H](OC)[C@@H](O)[C@H](C)O4)[C@H](C)O3)[C@@H](C)/C=C/C=C3\CO[C@@H]4[C@H](O)C(C)=C[C@@H](C(=O)O1)[C@]34O)O2 (tested in a mixture with another compound) , state its recorded AC50.
1.75 µM (active)

Given CC1(C)C(C=C(Cl)Cl)C1C(=O)OC(C#N)c1ccc(F)c(Oc2ccccc2)c1 (stereo not drawn) , state its recorded AC50.
2.93 µM (active)

---
Given COC(=O)c1ccccc1S(=O)(=O)NC(=O)Nc1nc(C)nc(OC)n1 , state its recorded AC50.
inactive

Given Cc1[nH]c(=O)n(C(C)(C)C)c(=O)c1Cl , state its recorded AC50.
inactive

Given COc1nn(CSP(=S)(OC)OC)c(=O)s1 , state its recorded AC50.
15.6 µM (active)

Given CCC(C)(C)C(=O)OC1=C(c2ccc(Cl)cc2Cl)C(=O)OC12CCCCC2 , state its recorded AC50.
inactive

Given CCOCN(C(=O)CCl)c1c(C)cccc1CC , state its recorded AC50.
0.468 µM (active)

Given CC(C)N(C(=O)COc1nnc(C(F)(F)F)s1)c1ccc(F)cc1 , state its recorded AC50.
7.54 µM (active)

Given CCOc1nc(NC)nc(NC(=O)NS(=O)(=O)c2ccccc2C(=O)OC)n1 , state its recorded AC50.
inactive

---

- experiment: ATG_PPRE_CIS: Attagene CIS-FACTORIAL HepG2 Assay for human Peroxisome Proliferator-activated Response Element (PPRE) (AID 2282958)
- test.parameters: HepG2 PPRE cis-element reporter, Attagene transcription factor profiling; actives raise or lower the signal
- Method: ATG_CIS is a cell-based, multiplexed-readout assay that uses HepG2, a human liver cell line, with measurements taken at 24 hours after chemical dosing in a 24-well plate.ATG_PPRE_CIS is one of 52 assay component(s) measured or calculated from the ATG_CIS assay. […] This assay endpoint, ATG_PPRE_CIS, was analyzed with bidirectional fitting relative to DMSO as the negative control and baseline of activity. […]
The source made the active and inactive calls. Rule for the calls: active = hit-call score of the fitted dose curve at least 0.9, where 1 is the maximum; inactive = score below 0.9.
Please answer using one outcome listed in yes (active), no (inactive)

So what was the verdict on CCC(C)(C)C(=O)OC1=C(c2ccc(Cl)cc2Cl)C(=O)OC12CCCCC2 in this test?
no

So what was the verdict on CCOC1Oc2ccc(OS(C)(=O)=O)cc2C1(C)C (stereo not drawn) in this test?
yes

So what was the verdict on CC1(c2ccc(Oc3ccccc3)cc2)OC(=O)N(Nc2ccccc2)C1=O (stereo not drawn) in this test?
yes

Kindly consider the entry below.
So what was the verdict on COc1nn(CSP(=S)(OC)OC)c(=O)s1 in this test?
no

---

- experiment: STM_H9_NormalizedViability: Cytotoxicity Assessment at 120 hours in the Stemina devTOX quickPredict H9 human embryonic stem cell (hESC)-based Assay (AID 2283784)
Results filed as inconclusive are left out. The source made the active and inactive calls. How the source made its calls: active means hit-call score of the fitted dose curve at least 0.9, where 1 is the maximum; inconclusive means response in the unintended direction; inactive means score below 0.9.
Please answer using one outcome listed in active, inactive

Please review the entries below; each comes with its answer.
So what was the verdict on Oc1ccc(Cl)cc1Cc1ccccc1 in this test?
inactive

So what was the verdict on CCOC1Oc2ccc(OS(C)(=O)=O)cc2C1(C)C (centres undefined) in this test?
active

So what was the verdict on O=C(O)C(F)(F)C(F)(F)C(F)(F)C(F)(F)C(F)(F)C(F)(F)C(F)(F)F in this test?
inactive

Kindly consider the entry below.
So what was the verdict on C#CCN1C(=O)COc2cc(F)c(N3C(=O)C4=C(CCCC4)C3=O)cc21 in this test?
active

---

- experiment: APR_HepG2_P-H2AX_72hr: Apredica 72-hour HepG2 Assay for H2AX Phosphorylation (AID 2282916);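 also: phospho-histone H2A.x immunostain intensity per cell marking DNA damage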
- test.parameters: imaging, actives raise or lower the signal
Active and inactive are the calls of the source. The calls were made as follows: active = hit-call score of the fitted dose curve at least 0.9, where 1 is the maximum; inactive = score below 0.9.
Please answer using one outcome listed in active, inactive

So what was the verdict on CCS(=O)(=O)c1cccnc1S(=O)(=O)NC(=O)Nc1nc(OC)cc(OC)n1 in this test?
inactive

So what was the verdict on Cc1[nH]c(=O)n(C(C)(C)C)c(=O)c1Cl in this test?
inactive

So what was the verdict on Clc1ccccc1-c1nnc(-c2ccccc2Cl)nn1 in this test?
active

---
So what was the verdict on CNC(=O)CSP(=S)(OC)OC in this test?
inactive

So what was the verdict on CCC(C)(NC(=O)c1cc(Cl)c(C)c(Cl)c1)C(=O)CCl (stereo unspecified) in this test?
inactive

So what was the verdict on O=C(O)C(F)(F)C(F)(F)C(F)(F)C(F)(F)C(F)(F)C(F)(F)C(F)(F)F in this test?
inactive

---

- Read-out: X-box binding protein 1 (XBP1), XBP1 (gene 7494)
- experiment: LTEA_HepaRG_XBP1: Life Technologies and Expression Analysis (LTEA) Assay for X-box binding protein 1 (XBP1) using HepaRG (AID 2283540)
- test.parameters: mRNA level, 48 h; actives raise or lower the signal
Active and inactive are the calls of the source. The calls were made as follows: active = hit-call score of the fitted dose curve at least 0.9, where 1 is the maximum; inactive = score below 0.9.
Please answer using one outcome listed in label 1 = active, label 0 = inactive

So what was the verdict on CC1(C)C(C=C(Cl)Cl)C1C(=O)OC(C#N)c1ccc(F)c(Oc2ccccc2)c1 (configuration not stated) in this test?
label 0

So what was the verdict on O=S1OCC2C(CO1)C1(Cl)C(Cl)=C(Cl)C2(Cl)C1(Cl)Cl (configuration not stated) in this test?
label 0

So what was the verdict on O=S(=O)(O)C(F)(F)C(F)(F)C(F)(F)C(F)(F)C(F)(F)C(F)(F)C(F)(F)C(F)(F)F in this test?
label 0

So what was the verdict on Oc1cc(Cl)ccc1Oc1ccc(Cl)cc1Cl in this test?
label 0

So what was the verdict on CC(C)(C)C(O)/C(=C\c1ccc(Cl)cc1Cl)n1cncn1 (configuration not stated) in this test?
label 0

---
So what was the verdict on CCCN(CCOc1c(Cl)cc(Cl)cc1Cl)C(=O)n1ccnc1 in this test?
label 1

So what was the verdict on CN1CSC(=S)N(C)C1 in this test?
label 0

So what was the verdict on N#Cc1c(Cl)c(Cl)c(Cl)c(C#N)c1Cl in this test?
label 1

So what was the verdict on O=[N+]([O-])/N=C1\NCCN1Cc1ccc(Cl)nc1 in this test?
label 1

So what was the verdict on CC(C)N(C(=O)COc1nnc(C(F)(F)F)s1)c1ccc(F)cc1 in this test?
label 1

So what was the verdict on CC[C@H](C)[C@H]1O[C@]2(C=C[C@@H]1C)C[C@@H]1C[C@@H](C/C=C(\C)[C@@H](O[C@H]3C[C@H](OC)[C@@H](O[C@H]4C[C@H](OC)[C@@H](O)[C@H](C)O4)[C@H](C)O3)[C@@H](C)/C=C/C=C3\CO[C@@H]4[C@H](O)C(C)=C[C@@H](C(=O)O1)[C@]34O)O2 (tested in a mixture with another compound) in this test?
label 0

So what was the verdict on O=C(O)CCCOc1ccc(Cl)cc1Cl in this test?
label 0

Measured values drawn from PubChem BioAssay (EPA / NIEHS) for this set.
